tested on: HCT-116 colon; assay: NCI tumour cell line growth inhibition, 48 h; in the data active = GI50 below about 0.43 µM; inactive = the rest
Answer with one of the outcomes YES (active), NO (inactive)

Record request — test call for O=C(CC1(O)C(=O)Nc2c(Cl)ccc(Cl)c21)c1ccc(C2CC2)cc1 (stereo not given)
YES

###

test system: HS 578T breast; assay: NCI tumour cell line growth inhibition, 48 h
recorded metric: TGI

Use these answered entries as a reference point.
{"compound": "C=C(C)[C@@H]1CC[C@]2(C)[C@H](C=CC3=C4C[C@@](C)(CO)CC[C@]4(C)CC[C@]32C)[C@@]1(C)CCCN", "result": "4.07 µM"}
{"compound": "C/C(=N\\Nc1cccc(Cl)n1)c1ccccn1", "result": "> 100 µM"}
{"compound": "Cc1cc(Br)cc(C)c1NC(=O)C(=O)C1C(=O)C(CC2C(=O)c3ccccc3C2=O)C(=O)CC1(C)C (stereo not given)", "result": "> 100 µM"}
{"compound": "Oc1[nH]c2ccccc2c1N=NC(=S)N1CCCC1", "result": "> 72.9 µM"}
{"compound": "O=P1(O)c2ccccc2CS(=O)(=O)Cc2ccccc21", "result": "> 100 µM"}

Look up TGI: CCOc1cc(NC(C)=O)ccc1C(=O)NN1C(=O)CSC1c1ccc(O)c(OC)c1 (stereo not given)
> 100 µM

Look up TGI: "CC(=O)/C=C/C1=C(c2ccsc2)c2ccccc2CC1"
> 100 µM

Look up TGI: "Cc1cc2nc3c4ccccc4n(CCN(C)C)c3nc2cc1C"
5.76 µM

Look up TGI: "CCOC(=O)c1c(N2CCOCC2)[nH]c(=O)c(C(c2ccc(Cl)c([N+](=O)[O-])c2)c2c(O)c(C(=O)OCC)c(N3CCOCC3)[nH]c2=O)c1O"
> 100 µM

Look up TGI: "COc1ccccc1OC(=O)/C=C/c1ccccc1"
> 100 µM
